# MEASURED_TARGET: WRN helicase (His-WRN527-072) (Homo sapiens)
# Sequence (Q14191 527-1072 limits assumed): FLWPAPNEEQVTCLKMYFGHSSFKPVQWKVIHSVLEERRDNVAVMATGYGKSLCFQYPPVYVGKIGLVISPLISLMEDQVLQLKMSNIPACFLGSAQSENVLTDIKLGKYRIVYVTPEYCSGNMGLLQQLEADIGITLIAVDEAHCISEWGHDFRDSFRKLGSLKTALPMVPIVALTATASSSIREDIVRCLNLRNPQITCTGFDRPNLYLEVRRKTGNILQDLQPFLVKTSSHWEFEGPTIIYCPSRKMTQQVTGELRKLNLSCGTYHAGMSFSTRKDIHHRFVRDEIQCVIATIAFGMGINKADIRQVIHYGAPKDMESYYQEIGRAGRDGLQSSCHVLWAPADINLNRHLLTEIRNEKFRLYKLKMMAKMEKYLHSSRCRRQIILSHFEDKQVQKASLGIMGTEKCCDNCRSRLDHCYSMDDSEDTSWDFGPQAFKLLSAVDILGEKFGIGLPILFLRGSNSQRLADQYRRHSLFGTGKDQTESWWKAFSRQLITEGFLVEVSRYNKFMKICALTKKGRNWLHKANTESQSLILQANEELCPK
Friendly reminder: IC50 below 9 nM is t, at or above is f.

# STRUCTURE_AS_SMILES, MEASURED_TARGET, CAT
measured = [
    ("CCc1c(N2CC3CCC(C2)N3C(=O)c2nccc(Cl)c2O)c(=O)n2nc(C3=CCOCC3)nc2n1CC(=O)Nc1ccc(C(F)(F)F)nc1Cl", "WRN helicase (His-WRN527-072) (Homo sapiens)", "t"),
    ("CCc1c(N2C3CCC2CN(C(=O)c2ncccc2O)C3)c(=O)n2nc(-c3cnn(C)c3)nc2n1CC(=O)Nc1ccc(C(F)(F)F)cc1C", "WRN helicase (His-WRN527-072) (Homo sapiens)", "t"),
    ("CCc1c(C2=CCN(C(=O)c3ncnc(C)c3O)CCC2)c(=O)n2nc(C3CCOCC3)nc2n1CC(=O)Nc1ccc(C(F)(F)F)cc1Cl", "WRN helicase (His-WRN527-072) (Homo sapiens)", "f"),
    ("CCc1c(N2C3CC2CN(C(=O)c2ncnc(C)c2O)C3)c(=O)n2nc(C3=CCOCC3)nc2n1CC(=O)Nc1ccc(C(F)(F)F)cc1Cl", "WRN helicase (His-WRN527-072) (Homo sapiens)", "f"),
    ("CCc1c(N2CCCN(C(=O)c3ncnc(C)c3O)CC2)c(=O)n2nc(C3=CCOCC3)nc2n1CC(=O)Nc1ccc(C(F)(F)F)cc1Cl", "WRN helicase (His-WRN527-072) (Homo sapiens)", "t"),
]
